Reported values of inhibition for individual entries
target: Platelet-activating factor acetylhydrolase (Homo sapiens) (UniProt Q13093); test: pPAFAH enzyme inhibitors, primary screen, biochemical, fluorescence polarization, human (AID 463082); conditions: recombinant pPAFAH, FP-rhodamine probe fluorescence polarization; at 3.39 µM; active compounds read high;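 note: inhibitors block binding of the rhodamine activity-based probe so polarization drops; 0% = enzyme with DMSO and 100% = wells lacking pPAFAH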
Sequence (Q13093 whole entry, looked up): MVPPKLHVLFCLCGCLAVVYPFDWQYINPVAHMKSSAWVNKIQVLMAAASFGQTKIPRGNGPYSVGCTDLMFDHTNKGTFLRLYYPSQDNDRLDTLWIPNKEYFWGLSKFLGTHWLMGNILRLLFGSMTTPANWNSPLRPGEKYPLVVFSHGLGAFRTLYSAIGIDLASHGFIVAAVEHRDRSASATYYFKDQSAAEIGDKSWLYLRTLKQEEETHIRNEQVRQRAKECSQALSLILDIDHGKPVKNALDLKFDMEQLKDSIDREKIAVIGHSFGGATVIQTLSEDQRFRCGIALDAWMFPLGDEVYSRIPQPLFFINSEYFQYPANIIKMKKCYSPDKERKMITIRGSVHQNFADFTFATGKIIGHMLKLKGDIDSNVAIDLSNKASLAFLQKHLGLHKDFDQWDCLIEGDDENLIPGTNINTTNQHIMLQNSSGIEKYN
Out of some 330,000 compounds screened, about 4,900 (1.5%) were called active. The full list was thinned out, with actives kept by preference.
Field format: number, assumed %, no unit text.

Below are worked cases with known answers.
1. COc1ccc(S(=O)(=O)N(C)CC(=O)N2CCCC2)cc1; -1
2. COc1ccc(C(CNC(=O)c2ccc(NS(=O)(=O)c3ccc(F)c(C)c3)cc2)N(C)C)cc1 (stereo unspecified); 7.73

## Task Which inhibition is listed for CC1(N2CCOCC2)CC2(O)C(=[N+]1[O-])CCc1nonc12 (stereo unspecified) ?
## Result 11.9

## Task What do you get for COc1cc(C(=O)Nc2oc(-c3ccccc3)c(-c3ccccc3)c2C#N)cc(OC)c1OC ?
## Result 4.29

## Task Then CCc1ccc(N2CC(O)=C(c3nc4ccccc4c(=O)[nH]3)C2=N)cc1 ?
## Result -1.78

## Task And then COc1ccc(-c2n[nH]c(C)c2-c2ccccc2OC)c(O)c1 , what is it?
## Result 4.94

## Task Lookup CC(C)Oc1ccccc1C(=O)NC(CO)C(=O)O (stereo unspecified)
## Result 2.51

## Task Same question, Cc1cccc(CCNS(=O)(=O)c2ccc3c(c2)NC(=O)CO3)c1 this time
## Result 9.07

## Task And COc1ccc(N2CCN(C3CC(=O)N(c4ccc5c(c4)OCCO5)C3=O)CC2)cc1 (stereo unspecified) ?
## Result -4.08

## Task What do we get for Cc1ccc(-c2nc(SCC(=O)Nc3ccccc3OC(F)F)c3c(C)c(C(=O)O)sc3n2)cc1 ?
## Result 1.04
